- Target: full-length human PKCι (Homo sapiens, UniProt P41743)
- Construct: Recombinant, full-length human PKCι expressed in Sf21 insect cells is also commercially available
- Sequence (P41743 whole entry): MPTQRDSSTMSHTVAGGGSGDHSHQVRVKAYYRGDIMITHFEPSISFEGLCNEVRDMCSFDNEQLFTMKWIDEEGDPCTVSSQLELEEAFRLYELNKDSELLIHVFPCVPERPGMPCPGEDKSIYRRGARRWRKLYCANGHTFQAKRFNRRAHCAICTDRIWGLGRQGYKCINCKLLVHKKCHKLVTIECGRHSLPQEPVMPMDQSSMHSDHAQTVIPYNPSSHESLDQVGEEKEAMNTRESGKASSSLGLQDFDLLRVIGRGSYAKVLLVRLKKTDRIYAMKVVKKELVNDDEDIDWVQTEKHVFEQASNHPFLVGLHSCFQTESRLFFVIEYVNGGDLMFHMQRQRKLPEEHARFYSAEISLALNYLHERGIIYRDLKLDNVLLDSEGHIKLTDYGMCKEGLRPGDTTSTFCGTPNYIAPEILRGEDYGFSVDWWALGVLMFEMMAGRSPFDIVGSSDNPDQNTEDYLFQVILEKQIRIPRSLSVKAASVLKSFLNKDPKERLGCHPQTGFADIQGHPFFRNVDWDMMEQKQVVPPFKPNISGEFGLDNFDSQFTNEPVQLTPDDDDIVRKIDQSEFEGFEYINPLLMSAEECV
- Assay Text: PKCι IC50 IMAP assay, full-length PKCι at 150 μM ATP
- Study Conditions: read-out: IC50 in IMAP assay against full length PKCi at 150 μM ATP
This listing pairs molecules with measured IC50.

Fc1cccnc1-c1cc2c(-c3nc(N4CCNCC4)c4c(C5CCC5)cncc4n3)ccnc2[nH]1 | < 100 nM
Fc1ccc(Nc2cc(-c3nc(N4CCNCC4)c4c(C5CC5)cncc4n3)ccn2)c(F)c1 | < 100 nM
Fc1cnc(Nc2cc(-c3nc(NC4CCNCC4(F)F)c4c(C5CC5)cncc4n3)ccn2)c(F)c1 (centres unmarked) | 100 to 1000 nM
Fc1ccc(Cl)c(Nc2cc(-c3nc(N4CCNCC4)c4c(C5CC5)cncc4n3)ccn2)c1 | < 100 nM
CC(C)(C)OC(=O)N1CCCN(c2nc(-c3ccncc3)nc3cnccc23)CC1 | 10000 to 40000 nM

For the molecule N#CC[C@H]1CN(c2nc(-c3ccnc4[nH]ccc34)nc3cncc(C4CC4)c23)CCN1 , report IC50. < 100 nM

For the molecule CN1CCN(c2nc(-c3ccncc3)nc3cnccc23)CC1 , report IC50. 10000 to 40000 nM

For the molecule N[C@H](CNc1nc(N2CCOCC2)nc2cnccc12)Cc1ccccc1 , report IC50. 100 to 1000 nM

For the molecule c1ccc2c(c1)[nH]c1nccc(-c3nc(N4CCNCC4)c4c(C5CCC5)cncc4n3)c12 , report IC50. 100 to 1000 nM

For the molecule Fc1cccc(Nc2cc(-c3nc(N4CCNC(C(F)(F)F)C4)c4c(C5CC5)cncc4n3)ccn2)n1 (centres unmarked) , report IC50. 100 to 1000 nM

For the molecule CCOc1ccc(F)c(Nc2cc(-c3nc(N4CCNCC4)c4c(C5CC5)cncc4n3)ccn2)c1F , report IC50. < 100 nM

For the molecule c1ccc(C[C@H]2CN(Cc3ccccc3)CCN2c2nc(-c3ccncc3)nc3cnccc23)cc1 , report IC50. 10000 to 40000 nM

For the molecule c1cc(-c2nc(N3CCC4NCC[C@H]4C3)c3ccncc3n2)ccn1 (some centres unmarked) , report IC50. 10000 to 40000 nM

For the molecule c1cc(-c2nc(N3CCNCC3)c3c(C4CCC4)cncc3n2)c2cc(C3CCOC3)[nH]c2n1 (centres unmarked) , report IC50. < 100 nM
